Listed here: items and their measured IC50.
- Target System: Beta-lactamase (Enterobacter cloacae, UniProt P05364)
- Sequence (P05364 whole entry): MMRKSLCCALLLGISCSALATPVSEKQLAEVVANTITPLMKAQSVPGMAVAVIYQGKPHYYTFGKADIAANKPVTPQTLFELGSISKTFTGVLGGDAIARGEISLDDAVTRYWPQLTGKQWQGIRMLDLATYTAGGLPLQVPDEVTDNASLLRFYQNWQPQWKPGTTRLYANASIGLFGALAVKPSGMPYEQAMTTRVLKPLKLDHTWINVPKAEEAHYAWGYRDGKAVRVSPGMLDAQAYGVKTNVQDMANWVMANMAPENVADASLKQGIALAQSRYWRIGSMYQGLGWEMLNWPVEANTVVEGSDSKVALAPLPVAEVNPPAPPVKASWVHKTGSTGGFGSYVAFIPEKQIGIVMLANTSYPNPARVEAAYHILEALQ
- Protocol Description: The concentration of compound to inhibit beta-lactamase was measured on Enterobacter cloacae SC 12368
- Assay type: functional

// worked examples, IC50 included
Asked: # query: IC50 of entry CC(=O)OCC1=C(C(=O)O)N2C(=O)C(=C(Br)Br)[C@H]2S(=O)(=O)C1
Given back: > 20 µM

Asked: Please answer likewise for CC(=O)OCC1=C(C(=O)O)N2C(=O)/C(=C/C(C)(C)C)[C@H]2S(=O)(=O)C1
Given back: > 20 µM

Asked: Please answer likewise for CC(=O)OCC1=C(C(=O)O)N2C(=O)/C(=C/C(C)(C)C)[C@H]2SC1
Given back: > 20 µM

Asked: Please answer likewise for CC(=O)OCC1=C(C(=O)O)N2C(=O)/C(=C/CO)[C@H]2S(=O)(=O)C1
Given back: > 20 µM

Asked: Please answer likewise for CC(=O)OCC1=C(C(=O)O)N2C(=O)/C(=C\Br)[C@H]2S(=O)(=O)C1
Given back: > 20 µM

Asked: Please answer likewise for CON(C)C(=O)/C=C1/C(=O)N2C(C(=O)O)=C(COC(C)=O)CS[C@H]12
Given back: > 20 µM

Asked: Please answer likewise for CC(=O)OCC1=C(C(=O)O)N2C(=O)C(=C(Cl)Cl)[C@H]2S(=O)(=O)C1
Given back: > 20 µM

Asked: Please answer likewise for CC(=O)OCC1=C(C(=O)O)N2C(=O)/C(=C/c3ccccc3)[C@H]2S(=O)(=O)C1
Given back: 6.8 µM

More entries:
Asked: # query: IC50 of entry CC(=O)OCC1=C(C(=O)[O-])N2C(=O)/C(=C/c3ccccn3)[C@H]2S(=O)(=O)C1.[Na+]
Given back: 0.025 µM

Asked: Please answer likewise for CC(=O)OCC1=C(C(=O)O)N2C(=O)/C(=C/C(=O)OC(C)(C)C)[C@H]2S(=O)(=O)C1
Given back: 5.9 µM

Asked: Please answer likewise for CC(=O)OCC1=C(C(=O)O)N2C(=O)/C(=C\c3ccccc3)[C@H]2S(=O)(=O)C1
Given back: > 20 µM

----------
- Target System: Beta-lactamase TEM (Escherichia coli)
- Sequence (P62593 whole entry): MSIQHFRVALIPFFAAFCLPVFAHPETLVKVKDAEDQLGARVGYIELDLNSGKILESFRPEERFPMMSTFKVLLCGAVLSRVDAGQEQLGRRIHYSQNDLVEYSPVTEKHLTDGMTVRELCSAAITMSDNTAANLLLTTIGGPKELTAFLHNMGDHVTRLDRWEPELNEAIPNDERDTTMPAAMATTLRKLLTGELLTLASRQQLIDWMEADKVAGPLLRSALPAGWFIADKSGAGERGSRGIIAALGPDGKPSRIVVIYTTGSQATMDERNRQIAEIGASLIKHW
- Protocol Description: The concentration of compound to inhibit Beta-lactamase was measured on Escherichia coli WC3310
- Assay type: functional
pIC50: −log10 of the molar value.
Measurement Kind: pIC50

Asked: # query: pIC50 of entry CC(=O)OCC1=C(C(=O)O)N2C(=O)/C(=C\Br)[C@H]2SC1
Given back: < 4.70

----------
- Target System: Beta-lactamase TEM (Escherichia coli)
- Protocol Description: The concentration of compound to inhibit beta-lactamase was measured on Escherichia coli WC3310
- Format: functional
Listed here: items and their measured IC50.

Asked: # query: IC50 of entry CC(=O)OCC1=C(C(=O)O)N2C(=O)/C(=C\c3ccccc3)[C@H]2S(=O)(=O)C1
Given back: > 20 µM

Asked: Please answer likewise for CC(=O)OCC1=C(C(=O)O)N2C(=O)C(=C(Br)Br)[C@H]2S(=O)(=O)C1
Given back: > 20 µM

Asked: Please answer likewise for CC(=O)OCC1=C(C(=O)O)N2C(=O)/C(=C/c3ccccc3)[C@H]2S(=O)(=O)C1
Given back: > 20 µM

Now look at this entry.
Asked: # query: IC50 of entry CON(C)C(=O)/C=C1/C(=O)N2C(C(=O)O)=C(COC(C)=O)CS[C@H]12
Given back: > 20 µM
